B1: H2-Kb / B14 (parent)
chain 1: GEQVEQRPPHLSVREGDSAVIICTYTDPNSYYFFWYKQEPGAGLQLLMKVFSSTEINEGQGFTVLLNKKDKQLSLNLTAAHPGDSAVYFCAVSARGNMGYKLTFGTGTSLLVDP
chain 2: GGIITQTPKFLIGQEGQKLTLKCQQNFNHDTMYWYRQDSGKGLRLIYYSITENDLQKGDLSEGYDASREKKSSFSLTVTSAQKNEMAVFLCASSMGQGASDYTFGSGTRLLVI
chain 3: not shown
chain 4: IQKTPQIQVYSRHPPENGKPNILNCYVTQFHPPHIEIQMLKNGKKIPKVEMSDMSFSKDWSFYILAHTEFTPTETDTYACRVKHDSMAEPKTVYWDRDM
chain 5: SIINFEKL

- Variants of: B1
- ASSAY_PROTOCOL: % of reporter cells activated (NFAT-GFP), raw; further: test concentration or dose not given here
- CONDITION_DESCRIPTION: with B14; scale: % of reporter cells activated
Everything with ratio to parent lower than 0.9 is 0 (no); everything else, including exactly 0.9, is 1 (yes).

Below, 10 variants whose answers are already recorded.
sequence_variant="chain 5 K7R" cat="0 (no)"
sequence_variant="chain 5 I3N" cat="1 (yes)"
sequence_variant="chain 5 F5W" cat="0 (no)"
sequence_variant="chain 5 E6G" cat="1 (yes)"
sequence_variant="chain 5 K7Q" cat="1 (yes)"
sequence_variant="chain 5 N4Y" cat="0 (no)"
sequence_variant="chain 5 E6C" cat="1 (yes)"
sequence_variant="chain 5 F5R" cat="1 (yes)"
sequence_variant="chain 5 E6R" cat="0 (no)"
sequence_variant="chain 5 N4M" cat="0 (no)"

Does the variant chain 5 E6L have recorded ratio to parent that is 0.9 or more? 0 (no)

Does the variant chain 5 E6I have recorded ratio to parent that is 0.9 or more? 0 (no)

Where do these numbers come from? They come from paper PMC11480844.
